# EXPERIMENTAL_TARGET: T1, recombinant cyno monkey PCSK9 protein (cyno monkey, UniProt A8T666 31-692 (rhesus entry), limits assumed, biotinylated in the ELISA assays)
# T1 construct: also called cyno PCSK9; Cyno Monkey PCSK9-His
# T1 sequence (A8T666 31-692 limits assumed): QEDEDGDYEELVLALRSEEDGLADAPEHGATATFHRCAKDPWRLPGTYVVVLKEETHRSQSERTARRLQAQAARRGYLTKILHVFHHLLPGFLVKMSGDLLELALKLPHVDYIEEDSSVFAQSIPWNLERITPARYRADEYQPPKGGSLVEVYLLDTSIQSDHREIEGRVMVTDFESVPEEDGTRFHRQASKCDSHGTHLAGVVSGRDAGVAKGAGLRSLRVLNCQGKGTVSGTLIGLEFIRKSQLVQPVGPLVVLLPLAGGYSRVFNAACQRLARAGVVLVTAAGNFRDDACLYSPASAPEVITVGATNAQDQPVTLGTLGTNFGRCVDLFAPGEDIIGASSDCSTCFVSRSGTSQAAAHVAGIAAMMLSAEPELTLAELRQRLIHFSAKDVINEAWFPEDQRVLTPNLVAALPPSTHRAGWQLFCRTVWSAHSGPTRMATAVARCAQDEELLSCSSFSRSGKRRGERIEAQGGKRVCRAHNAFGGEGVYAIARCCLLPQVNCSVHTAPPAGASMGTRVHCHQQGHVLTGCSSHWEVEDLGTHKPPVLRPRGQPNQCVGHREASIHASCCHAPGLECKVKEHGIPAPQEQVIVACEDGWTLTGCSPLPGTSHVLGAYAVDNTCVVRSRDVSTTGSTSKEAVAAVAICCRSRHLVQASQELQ
# ASSAY_PROCEDURE: ELISA; antibody 0.000067 nM
Give OD450 nm for every item shown.
Enter your answer as a number in OD450 nm; do not include the unit.

Q) Return OD450 nm for the following binder: 74C10A8, fully human anti-PCSK9 antibody (antibody, human IgG1, V domains shown) VH: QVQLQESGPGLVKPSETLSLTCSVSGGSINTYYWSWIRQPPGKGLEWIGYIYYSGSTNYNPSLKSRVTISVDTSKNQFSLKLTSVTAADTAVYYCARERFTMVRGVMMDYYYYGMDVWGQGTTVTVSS VL: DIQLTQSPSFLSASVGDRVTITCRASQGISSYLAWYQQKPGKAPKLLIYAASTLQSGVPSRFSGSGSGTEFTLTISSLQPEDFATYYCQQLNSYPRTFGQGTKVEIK
A) 0.13

Q) Look up OD450 nm of 139G1C5, fully human anti-PCSK9 antibody (antibody, human IgG1, V domains shown) VH: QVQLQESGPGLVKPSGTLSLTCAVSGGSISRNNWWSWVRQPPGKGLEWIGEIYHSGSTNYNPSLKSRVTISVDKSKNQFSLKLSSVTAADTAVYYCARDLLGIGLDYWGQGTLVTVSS VL: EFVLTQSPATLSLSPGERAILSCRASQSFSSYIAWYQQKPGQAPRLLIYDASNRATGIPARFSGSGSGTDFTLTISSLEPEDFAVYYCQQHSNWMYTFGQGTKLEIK and report it.
A) 0.08

Q) # return recorded OD450 nm for entry 152G2F7, fully human anti-PCSK9 antibody (antibody, human IgG1, V domains shown) VH: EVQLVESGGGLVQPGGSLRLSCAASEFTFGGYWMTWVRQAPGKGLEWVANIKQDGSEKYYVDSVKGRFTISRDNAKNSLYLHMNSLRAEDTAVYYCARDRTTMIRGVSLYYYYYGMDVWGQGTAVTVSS VL: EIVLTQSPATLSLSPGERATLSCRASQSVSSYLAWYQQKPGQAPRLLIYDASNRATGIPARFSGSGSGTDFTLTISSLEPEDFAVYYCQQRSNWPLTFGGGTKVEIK
A) 0.07

Q) Please report OD450 nm for the following binder: 76A1B11, fully human anti-PCSK9 antibody (antibody, human IgG1, V domains shown) VH: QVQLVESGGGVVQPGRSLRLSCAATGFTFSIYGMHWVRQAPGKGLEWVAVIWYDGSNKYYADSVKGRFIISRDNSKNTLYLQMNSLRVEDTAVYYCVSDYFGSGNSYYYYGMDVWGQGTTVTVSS VL: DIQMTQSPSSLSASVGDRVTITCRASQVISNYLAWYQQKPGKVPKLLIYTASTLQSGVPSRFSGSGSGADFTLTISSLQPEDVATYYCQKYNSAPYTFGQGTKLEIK
A) 0.11
